test: Metabolic stability in human hepatic microsome; assay type: in vitro ADME; details: human, microsomes, pH 7.4, CL NADPH(+)
Positions of bridges follow the written chain, without caps; N, C: chain ends. Non-standard residues stand in square brackets, D forms with d. Residues, ends and D or L forms follow the SMILES beside them. *: point of attachment. NMePhe(3-Cl) = CN[C@@H](Cc1cccc(Cl)c1)C(=O)O; NMeF = CN[C@@H](Cc1ccccc1)C(=O)O; NMeL = CN[C@@H](CC(C)C)C(=O)O; NMeA = CN[C@@H](C)C(=O)O; Piperidide = C1CCN(*)CC1
MEASURED_PARAMETER: microsomal CLint at 1 uM (µL/min/mg)
I only need the number, in µL/min/mg, no unit after it.

# microsomal CLint at 1 uM lookup, item CC[C@H](C)[C@H](NC(=O)[C@H](Cc1cccc(Cl)c1)N(C)C(=O)[C@H](CC(C)C)NC(=O)[C@H](C)N(C)C(=O)[C@H](CC(C)C)N(C)C(=O)[C@@H]1CC(=O)N[C@@H](Cc2ccccc2)C(=O)N(C)[C@@H](Cc2ccccc2)C(=O)N2CCC[C@H]2C(=O)N[C@@H](CC(C)C)C(=O)N(C)[C@@H](Cc2cccc(Cl)c2)C(=O)N[C@@H]([C@@H](C)O)C(=O)N[C@@H](CC(C)C)C(=O)N1)C(=O)N1CCCCC1 [DP-923] (F[NMeF]PL[NMePhe(3-Cl)]TLD[NMeL][NMeA]L[NMePhe(3-Cl)]I-Piperidide; lactam N-8)
8

* * *

The entries below come with measured microsomal CLint at 1 uM values attached.
assay: Metabolic stability in human hepatic microsome; format: in vitro ADME; conditions: microsomes, pH 7.4; human hepatic microsome, NADPH(+); read-out: CL NADPH(+)
Positions of bridges follow the written chain, without caps; N, C: chain ends. Non-standard residues stand in square brackets, D forms with d. Residues, ends and D or L forms follow the SMILES beside them. *: point of attachment. Tyr(3-F) = N[C@@H](Cc1ccc(O)c(F)c1)C(=O)O; NMeF = CN[C@@H](Cc1ccccc1)C(=O)O; NMeL = CN[C@@H](CC(C)C)C(=O)O; NMeA = CN[C@@H](C)C(=O)O; Piperidide = C1CCN(*)CC1; Sar = CNCC(=O)O
I only need the number, in µL/min/mg, no unit after it.

Example molecules with recorded microsomal CLint at 1 uM:
MOLECULE	VALUE_UNIT	microsomal CLint at 1 uM
CC[C@H](C)[C@@H]1NC(=O)[C@H](CC(C)C)N(C)C(=O)CN(C)C(=O)[C@H]([C@@H](C)O)NC(=O)[C@H](C)N(C)C(=O)C[C@@H](C(=O)N[C@@H](C)C(=O)N2CCC[C@H]2C(=O)N[C@@H](C)C(=O)N2CCCCC2)NC(=O)[C@H](CC(C)C)N(C)C(=O)[C@H](Cc2ccccc2)N(C)C(=O)[C@H](CC(C)C)N(C)C1=O [DP-662] ([NMeA]T[Sar][NMeL]I[NMeL][NMeF][NMeL]DAPA-Piperidide; lactam N-9)	µL/min/mg	101
CC(C)C[C@@H]1NC(=O)[C@H](CC(C)C)N(C)C(=O)[C@H](CC(C)C)N(C)C(=O)CNC(=O)[C@H](Cc2ccccc2)N(C)C(=O)[C@H]([C@@H](C)O)NC(=O)[C@H](CC(C)C)N(C)C(=O)[C@H](Cc2ccc(O)c(F)c2)NC(=O)[C@H](C)NC(=O)C[C@@H](C(=O)N(C)[C@@H](Cc2ccccc2)C(=O)N[C@@H](C)C(=O)N2CCCCC2)NC1=O [DP-605] (A[Tyr(3-F)][NMeL]T[NMeF]G[NMeL][NMeL]LD[NMeF]A-Piperidide; lactam N-10)	µL/min/mg	30

Below: the item to evaluate.
# microsomal CLint at 1 uM lookup, item CC[C@H](C)[C@@H]1NC(=O)[C@H](C)N(C)C(=O)[C@H](CC(C)C)N(C)C(=O)[C@@H](C(C)C)NC(=O)C[C@@H](C(=O)N(C)[C@@H](Cc2ccccc2)C(=O)N[C@@H](C)C(=O)N2CCCCC2)NC(=O)[C@H]([C@@H](C)O)NC(=O)[C@H](CC(C)C)N(C)C(=O)[C@H](Cc2ccccc2)N(C)C(=O)[C@H](CC(C)C)N(C)C(=O)[C@H](Cc2ccccc2)N(C)C1=O [DP-190] ([dV][NMeL][NMeA]I[NMeF][NMeL][NMeF][NMeL]TD[NMeF]A-Piperidide; lactam N-10)
3
